target: Serine/threonine-protein kinase ULK1 (Homo sapiens); assay: Inhibition of ULK1 (unknown origin) expressed in HEK293T cells incubated for 2 hrs by NanoBRET assay; type: cell-based
Sequence (O75385 whole entry): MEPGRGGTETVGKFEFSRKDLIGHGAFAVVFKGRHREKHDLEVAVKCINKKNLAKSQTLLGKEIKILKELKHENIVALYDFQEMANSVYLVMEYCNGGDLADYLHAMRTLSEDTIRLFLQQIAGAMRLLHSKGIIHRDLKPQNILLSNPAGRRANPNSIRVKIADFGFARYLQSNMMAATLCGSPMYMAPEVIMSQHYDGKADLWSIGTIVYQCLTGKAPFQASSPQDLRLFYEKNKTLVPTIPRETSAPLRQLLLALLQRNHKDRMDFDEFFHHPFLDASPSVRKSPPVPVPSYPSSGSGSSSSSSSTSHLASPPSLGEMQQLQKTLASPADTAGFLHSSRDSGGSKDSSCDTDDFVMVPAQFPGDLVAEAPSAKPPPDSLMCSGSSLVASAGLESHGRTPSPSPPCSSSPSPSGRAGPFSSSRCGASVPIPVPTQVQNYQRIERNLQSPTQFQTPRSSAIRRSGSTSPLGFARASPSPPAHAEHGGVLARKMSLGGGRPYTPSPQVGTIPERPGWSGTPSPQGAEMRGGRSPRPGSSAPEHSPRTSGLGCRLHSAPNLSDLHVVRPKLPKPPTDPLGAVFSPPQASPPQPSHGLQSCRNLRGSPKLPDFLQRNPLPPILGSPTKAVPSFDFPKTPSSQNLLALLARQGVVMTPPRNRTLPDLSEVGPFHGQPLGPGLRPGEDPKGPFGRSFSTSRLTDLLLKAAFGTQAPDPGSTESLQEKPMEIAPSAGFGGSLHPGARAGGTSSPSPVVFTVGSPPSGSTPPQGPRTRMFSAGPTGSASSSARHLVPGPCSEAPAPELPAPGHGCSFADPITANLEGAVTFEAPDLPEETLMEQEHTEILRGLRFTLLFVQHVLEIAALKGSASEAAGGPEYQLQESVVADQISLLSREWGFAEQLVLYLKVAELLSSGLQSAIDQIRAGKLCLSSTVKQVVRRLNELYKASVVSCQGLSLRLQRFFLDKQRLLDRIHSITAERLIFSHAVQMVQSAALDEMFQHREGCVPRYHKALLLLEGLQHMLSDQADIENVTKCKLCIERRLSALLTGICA
RESULT TYPE: IC50 (nM)

O=C1CCCc2cc(Nc3ncc(C(F)(F)F)c(NC4CC4)n3)ccc21; 1360
Nc1ccc(Nc2ncc(C(F)(F)F)c(NC3CC3)n2)cc1; 679
FC(F)(F)c1cnc(Nc2ccc3ncoc3c2)nc1NC1CC1; 1020

A: FC(F)(F)c1cnc(Nc2ccc3ncccc3c2)nc1NC1CC1
B: FC(F)(F)c1cnc(Nc2ccc3nn[nH]c3c2)nc1NC1CC1
Input line: Which entry has a larger number for IC50, A or B ? Provide the label of your selected option as the answer.
Output line: B
(B: 1170 nM, A: 739 nM)
